# SYSTEM: MAPKAPK3 (human)
# ASSAY PROTOCOL: radiometric filter-binding kinase assay
# MEASUREMENT SETUP: compound 0.1 µM
MEASURE NAME: residual activity (%)

COMPOUND: CC1=C(CO)C(=O)O[C@@H]([C@@H](C)[C@H]2CC[C@H]3[C@@H]4C[C@H]5O[C@]56[C@@H](O)C=CC(=O)[C@]6(C)C4CC[C@]23C)C1 (stereo not given in full)
MEASURE NAME: residual activity
QUANTITATIVE RESULT: 120
//
COMPOUND: COc1cc(O)c2c(c1)/C=C/C[C@H](O)[C@H](O)C(=O)/C=C\C[C@H](C)OC2=O
MEASURE NAME: residual activity
QUANTITATIVE RESULT: 113
//
COMPOUND: O=C(N[C@@H](COc1ccc2[nH]c(=O)[nH]c2c1)c1ccccc1)c1cccn(Cc2ccc(F)c(F)c2)c1=O
MEASURE NAME: residual activity
QUANTITATIVE RESULT: 116

A. COc1ccc2c(c1)c1c3c(c4c5ccccc5n(C)c4c1n2CC(O)CN(C)C)C(=O)NC3=O (stereo not given)
B. NC1(c2ccc(-c3nc4ccn5c(=O)[nH]nc5c4cc3-c3ccccc3)cc2)CCC1
Q. Record comparison, field residual activity: mark the lower of A and B . # reply format: chosen label
A. B
(B: 88%, A: 131%)

This collection of values is drawn from the kinase profiling compilation of Christmann-Franck et al. (2016).
